test system: 769-P; test: minimum viability across doses, drug + dasatinib, relative to DMSO (fraction); higher = less growth inhibition; details: treatment: drug + dasatinib (fixed dose, not stated); 5 days
Dear colleague, classification is by minimum viability across doses, with ranges listed here: class 0 (below 0.04), class 1 (0.04 to below 0.2), class 2 (0.2 or more)

Compound: Nc1nccc(Oc2ccc(NC(=O)c3c[nH]cc(-c4ccc(F)cc4)c3=O)cc2F)c1Cl + Cc1nc(Nc2ncc(C(=O)Nc3c(C)cccc3Cl)s2)cc(N2CCN(CCO)CC2)n1
Assigned Category: class 2
//
Compound: CCCNC(=O)Nc1ccc(Oc2ncnc3cc(OC)c(OC)cc23)cc1Cl [KRN 633] + Cc1nc(Nc2ncc(C(=O)Nc3c(C)cccc3Cl)s2)cc(N2CCN(CCO)CC2)n1
Assigned Category: class 2
//
Compound: Oc1cccc(-c2nc(N3CCOCC3)c3oc4ncccc4c3n2)c1 [PI-103] + Cc1nc(Nc2ncc(C(=O)Nc3c(C)cccc3Cl)s2)cc(N2CCN(CCO)CC2)n1
Assigned Category: class 0
//
Compound: C#Cc1cccc(Nc2ncnc3cc(OCCOC)c(OCCO)cc23)c1.Cl [OSI-420 (Desmethyl Erlotinib)] + Cc1nc(Nc2ncc(C(=O)Nc3c(C)cccc3Cl)s2)cc(N2CCN(CCO)CC2)n1
Assigned Category: class 2
//
Compound: Cc1cnc(NC(=O)Nc2cc(Br)c(C)cc2OC[C@@H]2CNCCO2)cn1 + Cc1nc(Nc2ncc(C(=O)Nc3c(C)cccc3Cl)s2)cc(N2CCN(CCO)CC2)n1
Assigned Category: class 1
//
Compound: CNC(=O)c1nn(C)c2c1C(C)(C)Cc1cnc(Nc3ccc(N4CCN(C)CC4)cc3)nc1-2 + Cc1nc(Nc2ncc(C(=O)Nc3c(C)cccc3Cl)s2)cc(N2CCN(CCO)CC2)n1
Assigned Category: class 0
//
Compound: CN1CC[C@H](c2c(O)cc(O)c3c(=O)cc(-c4ccccc4Cl)oc23)[C@H](O)C1.Cl [Flavopiridol hydrochloride] + Cc1nc(Nc2ncc(C(=O)Nc3c(C)cccc3Cl)s2)cc(N2CCN(CCO)CC2)n1
Assigned Category: class 0
//
Compound: Cc1c(NC(=O)OC[C@@H]2COCCN2)cn2ncnc(Nc3ccc4c(cnn4Cc4cccc(F)c4)c3)c12.Cl + Cc1nc(Nc2ncc(C(=O)Nc3c(C)cccc3Cl)s2)cc(N2CCN(CCO)CC2)n1
Assigned Category: class 1
//
Compound: Cc1ccc(NC(=O)c2cccc(C(C)(C)C#N)c2)cc1Nc1ccc2ncn(C)c(=O)c2c1 [AZ628] + Cc1nc(Nc2ncc(C(=O)Nc3c(C)cccc3Cl)s2)cc(N2CCN(CCO)CC2)n1
Assigned Category: class 2
